The measured values listed here are drawn from patent US12686673B2.

biological target: EGFR (H773insNPH) expressing Ba/F3 stable cell line (Homo sapiens, UniProt P00533, DUP771-773, cells depend on it); test: Cellular proliferation (Alamar Blue) assay, EGFR H773insNPH Ba/F3; assay type: cell-based; conditions: 72 hr, read-out: NPH IC50
Sequence (P00533 with tags, fused parts or gaps DUP771-773): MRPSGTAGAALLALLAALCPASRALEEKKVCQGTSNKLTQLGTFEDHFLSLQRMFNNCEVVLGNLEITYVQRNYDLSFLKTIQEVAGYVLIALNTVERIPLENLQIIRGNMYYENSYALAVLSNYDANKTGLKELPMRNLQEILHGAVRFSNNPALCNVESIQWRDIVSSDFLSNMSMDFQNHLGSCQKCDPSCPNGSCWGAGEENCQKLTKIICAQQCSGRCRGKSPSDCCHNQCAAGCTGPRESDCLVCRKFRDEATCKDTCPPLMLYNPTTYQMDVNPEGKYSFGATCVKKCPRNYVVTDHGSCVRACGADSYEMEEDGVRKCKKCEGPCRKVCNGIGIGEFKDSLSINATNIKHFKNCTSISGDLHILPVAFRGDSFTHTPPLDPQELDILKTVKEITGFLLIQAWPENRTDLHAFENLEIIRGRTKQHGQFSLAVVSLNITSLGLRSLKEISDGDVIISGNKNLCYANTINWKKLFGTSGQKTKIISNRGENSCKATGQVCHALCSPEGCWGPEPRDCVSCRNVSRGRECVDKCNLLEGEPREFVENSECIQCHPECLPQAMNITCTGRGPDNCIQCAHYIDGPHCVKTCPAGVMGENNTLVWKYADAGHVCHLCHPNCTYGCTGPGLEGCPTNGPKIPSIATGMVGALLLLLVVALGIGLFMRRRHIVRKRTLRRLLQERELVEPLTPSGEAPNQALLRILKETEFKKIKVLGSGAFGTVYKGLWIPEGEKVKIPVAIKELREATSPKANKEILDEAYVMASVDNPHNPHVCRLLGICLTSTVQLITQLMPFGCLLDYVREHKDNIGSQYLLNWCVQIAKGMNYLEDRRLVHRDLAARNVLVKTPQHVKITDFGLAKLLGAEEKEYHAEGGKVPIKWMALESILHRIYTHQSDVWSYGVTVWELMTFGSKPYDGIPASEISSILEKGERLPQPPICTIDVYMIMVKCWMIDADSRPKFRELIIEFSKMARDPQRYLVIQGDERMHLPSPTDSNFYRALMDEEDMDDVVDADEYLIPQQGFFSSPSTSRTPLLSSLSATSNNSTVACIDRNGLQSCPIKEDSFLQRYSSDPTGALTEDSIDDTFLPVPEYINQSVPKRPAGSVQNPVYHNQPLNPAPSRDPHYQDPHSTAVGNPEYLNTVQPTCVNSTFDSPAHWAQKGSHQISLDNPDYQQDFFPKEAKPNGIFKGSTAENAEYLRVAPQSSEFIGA
Where a name gives a salt, the structure may show the parent alone.
// assign label 1 if GI50 falls strictly below 80 nM, else label 0 (ties count as label 0)

COMPOUND | DISCRETE_LABEL
C=CC(=O)Nc1ccc(F)c(Nc2nc(Nc3cnn(C4CCN(C)CC4)c3)ncc2-c2ccc(C(F)(F)F)cc2)c1 | label 0
C=CC(=O)Nc1cccc(Oc2nc(Nc3cnn(C)c3)ncc2-c2ccc(OC(F)F)nc2)c1 | label 0

Let us examine a further case.
input: Strictly below 80 nM in GI50? C=CC(=O)Nc1ccc(F)c(Nc2nc(Nc3cnn(C)c3)ncc2-c2cncnc2)c1 [Compound 147, trifluoroacetate]
output: label 1

====

target: HER2 (A775_G776insYVMA) expressing Ba/F3 stable cell line (Homo sapiens, UniProt P04626, DUP772-775, cells depend on it); experiment: Cellular proliferation (Alamar Blue) assay, HER2 A775_G776insYVMA Ba/F3; assay type: cell-based; details: 72 hr, read-out: YVMA IC50
Sequence (P04626 with tags, fused parts or gaps DUP772-775): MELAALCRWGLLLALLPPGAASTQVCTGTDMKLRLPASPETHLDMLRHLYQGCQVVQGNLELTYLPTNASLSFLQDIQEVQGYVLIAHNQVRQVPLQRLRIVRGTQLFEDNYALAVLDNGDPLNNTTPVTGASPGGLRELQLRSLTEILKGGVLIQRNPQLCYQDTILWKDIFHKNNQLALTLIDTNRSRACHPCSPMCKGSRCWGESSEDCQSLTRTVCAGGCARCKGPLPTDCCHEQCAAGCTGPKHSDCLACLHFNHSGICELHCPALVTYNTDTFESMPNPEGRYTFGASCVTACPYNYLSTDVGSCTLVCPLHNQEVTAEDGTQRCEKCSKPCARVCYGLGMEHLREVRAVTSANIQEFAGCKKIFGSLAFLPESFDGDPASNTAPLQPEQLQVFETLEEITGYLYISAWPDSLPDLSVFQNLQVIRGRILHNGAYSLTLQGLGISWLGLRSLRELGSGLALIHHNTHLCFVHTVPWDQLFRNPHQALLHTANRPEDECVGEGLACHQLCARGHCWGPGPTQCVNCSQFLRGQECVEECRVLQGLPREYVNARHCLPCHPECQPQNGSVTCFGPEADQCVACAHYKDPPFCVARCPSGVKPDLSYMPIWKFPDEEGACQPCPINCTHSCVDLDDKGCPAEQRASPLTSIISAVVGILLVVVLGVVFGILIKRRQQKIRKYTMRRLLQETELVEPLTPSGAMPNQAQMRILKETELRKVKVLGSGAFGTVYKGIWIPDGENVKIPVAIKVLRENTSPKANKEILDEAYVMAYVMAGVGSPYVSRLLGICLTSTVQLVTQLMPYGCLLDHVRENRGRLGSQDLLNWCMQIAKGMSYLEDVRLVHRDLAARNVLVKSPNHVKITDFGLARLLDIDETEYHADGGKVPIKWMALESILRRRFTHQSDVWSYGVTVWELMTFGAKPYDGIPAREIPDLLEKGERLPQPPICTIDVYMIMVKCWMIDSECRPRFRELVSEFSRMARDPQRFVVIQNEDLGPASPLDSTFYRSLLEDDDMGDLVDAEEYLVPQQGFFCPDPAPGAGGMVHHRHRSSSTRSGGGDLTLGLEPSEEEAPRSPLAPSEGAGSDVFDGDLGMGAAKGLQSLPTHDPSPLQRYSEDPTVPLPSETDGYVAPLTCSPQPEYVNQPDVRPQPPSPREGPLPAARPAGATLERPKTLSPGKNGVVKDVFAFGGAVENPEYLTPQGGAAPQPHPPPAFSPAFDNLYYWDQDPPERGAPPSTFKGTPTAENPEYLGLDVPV
Counter-ions that a name gives are not always drawn.
Recorded log10 of GI50 for the following compounds
Record value = log10 of GI50 given in nM.

Worked examples, 3 compounds total:
COMPOUND | VALUE_REPORTED
C=CC(=O)Nc1ccc(F)c(Nc2nc(Nc3cnn(C)c3)ncc2-c2ccc(N(C)C)cc2)c1 | 2.66
C=CC(=O)Nc1ccc(F)c(Nc2nc(Nc3cnn(C)c3)ncc2-c2ccc(OC(F)F)cc2)c1 | 2.43
C=CC(=O)Nc1ccc(F)c(Nc2nc(Nc3cnn(CCO)c3)ncc2-c2ccc(Br)cc2)c1 | 2.08

input: So what's the measured log10 of GI50 for this one? C=CC(=O)Nc1cccc(Nc2nc(Nc3cnn(C)c3)ncc2-c2cccc(F)c2)c1 [Compound 115, trifluoroacetate]
output: 1.40

input: So what's the measured log10 of GI50 for this one? C=CC(=O)Nc1cccc(Oc2nc(Nc3cnn(C)c3)ncc2-c2ccc(C)nc2)c1
output: 2.24

input: So what's the measured log10 of GI50 for this one? C=CC(=O)Nc1ccc(C(=O)Nc2ccccc2)c(Nc2ccnc(Nc3cnn(C)c3)n2)c1
output: 3.98

input: So what's the measured log10 of GI50 for this one? C=CC(=O)Nc1ccc(F)c(Nc2nc(Nc3cnn(C)c3)ncc2Br)c1
output: 2.88

input: So what's the measured log10 of GI50 for this one? C=CC(=O)Nc1ccc(F)c(Nc2nc(Nc3cnn(C)c3)ncc2-c2ccc(Oc3cccc(F)c3)cc2)c1
output: 3.99

input: So what's the measured log10 of GI50 for this one? C=CC(=O)Nc1cccc(Oc2nc(Nc3cnn(C)c3)ncc2-c2cncc(C(F)(F)F)c2)c1
output: 2.06

input: So what's the measured log10 of GI50 for this one? C=CC(=O)Nc1cccc(Nc2nc(Nc3cnn(C)c3)ncc2-c2ccc(C(F)(F)F)cc2)c1
output: 2.14

input: So what's the measured log10 of GI50 for this one? C=CC(=O)Nc1ccc(F)c(Nc2nc(Nc3cnn(C)c3)ncc2-c2ccnc(Cl)c2)c1
output: 2.20

input: So what's the measured log10 of GI50 for this one? C=CC(=O)Nc1cccc(Nc2nc(Nc3cnn(C)c3)ncc2-c2ccc(C(F)(F)F)cc2)c1F [Compound 148, trifluoroacetate]
output: 2.54

input: So what's the measured log10 of GI50 for this one? C=CC(=O)Nc1ccc(F)c(Nc2nc(Nc3cnn(C)c3)ncc2-c2ccc(-c3ccccc3)cc2)c1
output: 3.72

input: So what's the measured log10 of GI50 for this one? C=CC(=O)Nc1ccc(F)c(Nc2nc(Nc3cnn(C)c3)ncc2-c2ccc3cccnc3c2)c1
output: 2.54

input: So what's the measured log10 of GI50 for this one? C=CC(=O)Nc1ccc(F)c(Nc2nc(Nc3cnn(C)c3)ncc2-c2ccc(C(F)(F)F)nc2)c1
output: 2.25
